Tested on: Melanoderm cultures (human keratinocytes and melanocytes), melanin production
experimental.details: Assay of pigment production by Living Skin Equivalents (Melanoderm)
Format: cell-based
assay.setup: 10 μM, 14 days, melanin normalized to protein levels
Method: Assay of pigment production by Living Skin Equivalents (Melanoderms™) […] The cell viability of the cultures was assessed using the so called WST-1 (Water Soluble Tetrazolium Salt-1) assay purchased from Roche Applied Science and following the manufacturer's instructions. […] Cultures were incubated with WST-1 in the medium for 1 hour and production of formazan measured at 450 nm using a spectrophotometer plate reader, e.g. a BMG Labtech FLUOstar plate reader. […]
Give measured % inhibition of melanin production compared to vehicle control for each item. Keep answers brief.
The figure you give is taken to be in %; do not add the unit.

Enquiry: Returns the measured % inhibition of melanin production compared to vehicle control for the input molecule. Input: Cc1nc(NC(=S)NC(=O)COc2ccccc2)ccc1I
Return: 39

Enquiry: Returns the measured % inhibition of melanin production compared to vehicle control for the input molecule. Input: O=C(COc1ccc(Cl)cc1Cl)NC(=S)Nc1ccc(I)cn1
Return: 43

Enquiry: Returns the measured % inhibition of melanin production compared to vehicle control for the input molecule. Input: CC(C)(C)c1ccc(OCC(=O)NC(=S)Nc2ccc(I)cn2)cc1
Return: 22

Enquiry: Returns the measured % inhibition of melanin production compared to vehicle control for the input molecule. Input: O=C(COc1ccc(Cl)cc1)NC(=S)Nc1ccc(I)cn1
Return: 28

Enquiry: Returns the measured % inhibition of melanin production compared to vehicle control for the input molecule. Input: CC(C)c1ccc(OCC(=O)NC(=S)Nc2ccc(Cl)cn2)cc1
Return: 38

Enquiry: Returns the measured % inhibition of melanin production compared to vehicle control for the input molecule. Input: O=C(COc1ccccc1)NC(=S)Nc1ccc(I)cn1
Return: 53

Enquiry: Returns the measured % inhibition of melanin production compared to vehicle control for the input molecule. Input: Cc1cc(OCC(=O)NC(=S)Nc2ccc(I)cn2)cc(C)c1Cl
Return: 43

Enquiry: Returns the measured % inhibition of melanin production compared to vehicle control for the input molecule. Input: Cc1cccc(OCC(=O)NC(=S)Nc2ccc(I)cn2)c1
Return: 22

Enquiry: Returns the measured % inhibition of melanin production compared to vehicle control for the input molecule. Input: Cc1ccc(OCC(=O)NC(=S)Nc2ccc(Cl)cn2)cc1
Return: 35

Enquiry: Returns the measured % inhibition of melanin production compared to vehicle control for the input molecule. Input: O=C(COc1ccccc1)NC(=S)Nc1ccc(Cl)cn1
Return: 47
